Ref: patent US20100311729A1

Give measured log10 IC50 for each item. Keep answers brief.
# target.or.system: PI3K beta (Homo sapiens)
# Construct: for the full-length p110-b subunit are generated and fused by overlapping PCR; His tag (C); made in house; host or cells: baculovirus; Tn5 (Trichoplusia ni) or TiniPro insect cells
# Sequence (P42338 with tags, fused parts or gaps limits assumed): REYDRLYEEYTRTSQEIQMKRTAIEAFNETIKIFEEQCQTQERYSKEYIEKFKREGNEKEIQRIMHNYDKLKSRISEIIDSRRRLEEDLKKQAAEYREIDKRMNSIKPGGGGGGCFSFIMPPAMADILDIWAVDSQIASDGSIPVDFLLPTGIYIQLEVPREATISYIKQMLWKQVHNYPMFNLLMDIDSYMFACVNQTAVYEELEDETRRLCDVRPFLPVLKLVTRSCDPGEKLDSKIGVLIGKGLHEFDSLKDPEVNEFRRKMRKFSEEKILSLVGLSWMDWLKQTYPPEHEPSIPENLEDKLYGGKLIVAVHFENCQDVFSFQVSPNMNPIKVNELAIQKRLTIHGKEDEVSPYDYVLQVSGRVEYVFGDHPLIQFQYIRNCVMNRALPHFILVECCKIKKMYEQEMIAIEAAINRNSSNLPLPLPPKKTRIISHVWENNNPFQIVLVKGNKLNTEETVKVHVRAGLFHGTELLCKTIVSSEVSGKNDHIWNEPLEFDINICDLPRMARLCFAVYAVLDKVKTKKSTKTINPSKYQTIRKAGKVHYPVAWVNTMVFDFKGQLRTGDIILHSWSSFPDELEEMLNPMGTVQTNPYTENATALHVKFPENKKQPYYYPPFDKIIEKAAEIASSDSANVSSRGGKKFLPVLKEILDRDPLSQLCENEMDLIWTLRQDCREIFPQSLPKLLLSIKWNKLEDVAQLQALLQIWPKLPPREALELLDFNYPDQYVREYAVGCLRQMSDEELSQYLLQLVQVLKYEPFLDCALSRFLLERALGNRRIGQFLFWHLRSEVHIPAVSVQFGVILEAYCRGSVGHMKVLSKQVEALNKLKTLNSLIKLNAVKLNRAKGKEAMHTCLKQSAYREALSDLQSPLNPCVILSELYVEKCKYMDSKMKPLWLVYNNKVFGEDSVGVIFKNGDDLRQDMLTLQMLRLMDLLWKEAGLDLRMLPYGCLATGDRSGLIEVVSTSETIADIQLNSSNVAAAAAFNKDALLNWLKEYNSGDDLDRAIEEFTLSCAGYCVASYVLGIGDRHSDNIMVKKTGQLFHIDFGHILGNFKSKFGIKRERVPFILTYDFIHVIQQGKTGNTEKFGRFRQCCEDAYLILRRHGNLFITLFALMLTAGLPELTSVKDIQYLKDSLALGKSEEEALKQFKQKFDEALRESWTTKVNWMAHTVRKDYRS
# assay.procedure: PI3 kinase assay (Kinase-Glo luminescence), PI3K beta
# Format: biochemical
# test.parameters: Enzymatic Data; read-out: PI3K beta IC50 [umol]
For clarity, the numbers are log10 values of IC50 expressed in nM.

CC(C)C(=O)NCC1(COc2ccc(-c3ccc4ncc(-c5cnc(N)c(C(F)(F)F)c5)n4n3)cc2)COC1 [Example 167] | 3.17

Look up log10 IC50 for the entries below, preserving their order.
1. Nc1ccc(-c2cnc3ccc(-c4cnc(N)c(C(F)(F)F)c4)nn23)cn1 [Example 39]
2. CC(=O)c1ccc(CNC(=O)c2ccc(-c3cnc4ccc(-c5cnc(N)c(C(F)(F)F)c5)nn34)cc2)cc1 [Example 84]
3. COc1cc(-c2ccc3ncc(-c4cnc(N)c(C(F)(F)F)c4)n3n2)ccc1OCCNC(C)=O [Example 62]
4. NCCn1cc(-c2ccc3ncc(-c4cnc(N)c(C(F)(F)F)c4)n3n2)ccc1=O [Example 70]
5. COc1cc(-c2ccc3ncc(-c4cnc(N)c(C(F)(F)F)c4)n3n2)ccc1OCCCNC(=O)C(C)C [Example 51]

1. 1.28
2. 3.75
3. 2.19
4. 1.69
5. 3.14

====

# target.or.system: PI3K alfa (Homo sapiens)
# Construct: for the p110-a subunit (with a deletion of the first 20 amino acids); His tag (C); made in house; host or cells: baculovirus; Tn5 (Trichoplusia ni) or TiniPro insect cells
# assay.procedure: PI3 kinase assay (Kinase-Glo luminescence), PI3K alfa
# Assay type: biochemical
# test.parameters: Enzymatic Data; read-out: PI3K alfa IC50 [umol]
reported.metric: pIC50
Give bare numbers, as −log10 of the molar value.

Known results for compounds:
CC(C)C(=O)NCCOc1ccc(-c2ccc3ncc(-c4cnc(N)c(C(F)(F)F)c4)n3n2)cc1 | 7.03
Nc1ncc(-c2ccc3ncc(-c4ccc(S(N)(=O)=O)cc4)n3n2)cc1C(F)(F)F | 7.62

Please state, for each entry, its recorded pIC50.
1. Nc1ncc(-c2ccc3ncc(-c4ccc(C(=O)NCCCN5CCOCC5)cc4F)n3n2)cc1C(F)(F)F
2. COc1cc(-c2ccc3ncc(-c4cnc(N)c(C(F)(F)F)c4)n3n2)ccc1OCCN
3. CC(C)C(=O)NCCCOc1ccc(-c2ccc3ncc(-c4cnc(N)c(C(F)(F)F)c4)n3n2)cc1

[8.05, 7.48, 7.64]

Can you give me pIC50 for all of these, one by one?
1. Nc1ncc(-c2ccc3ncc(-c4ccc(C(=O)N5CCN(CCN6CCOCC6)CC5)c(F)c4)n3n2)cc1C(F)(F)F
2. COC(=O)NCCCOc1ccc(-c2ccc3ncc(-c4cnc(N)c(C(F)(F)F)c4)n3n2)cc1OC

1. 6.77
2. 6.78

====

# target.or.system: PI3K alfa (Homo sapiens, UniProt P42336)
# Construct: for the p110-a subunit (with a deletion of the first 20 amino acids); His tag (C); made in house; host or cells: baculovirus; Tn5 (Trichoplusia ni) or TiniPro insect cells
# Sequence (P42336 with tags, fused parts or gaps limits assumed): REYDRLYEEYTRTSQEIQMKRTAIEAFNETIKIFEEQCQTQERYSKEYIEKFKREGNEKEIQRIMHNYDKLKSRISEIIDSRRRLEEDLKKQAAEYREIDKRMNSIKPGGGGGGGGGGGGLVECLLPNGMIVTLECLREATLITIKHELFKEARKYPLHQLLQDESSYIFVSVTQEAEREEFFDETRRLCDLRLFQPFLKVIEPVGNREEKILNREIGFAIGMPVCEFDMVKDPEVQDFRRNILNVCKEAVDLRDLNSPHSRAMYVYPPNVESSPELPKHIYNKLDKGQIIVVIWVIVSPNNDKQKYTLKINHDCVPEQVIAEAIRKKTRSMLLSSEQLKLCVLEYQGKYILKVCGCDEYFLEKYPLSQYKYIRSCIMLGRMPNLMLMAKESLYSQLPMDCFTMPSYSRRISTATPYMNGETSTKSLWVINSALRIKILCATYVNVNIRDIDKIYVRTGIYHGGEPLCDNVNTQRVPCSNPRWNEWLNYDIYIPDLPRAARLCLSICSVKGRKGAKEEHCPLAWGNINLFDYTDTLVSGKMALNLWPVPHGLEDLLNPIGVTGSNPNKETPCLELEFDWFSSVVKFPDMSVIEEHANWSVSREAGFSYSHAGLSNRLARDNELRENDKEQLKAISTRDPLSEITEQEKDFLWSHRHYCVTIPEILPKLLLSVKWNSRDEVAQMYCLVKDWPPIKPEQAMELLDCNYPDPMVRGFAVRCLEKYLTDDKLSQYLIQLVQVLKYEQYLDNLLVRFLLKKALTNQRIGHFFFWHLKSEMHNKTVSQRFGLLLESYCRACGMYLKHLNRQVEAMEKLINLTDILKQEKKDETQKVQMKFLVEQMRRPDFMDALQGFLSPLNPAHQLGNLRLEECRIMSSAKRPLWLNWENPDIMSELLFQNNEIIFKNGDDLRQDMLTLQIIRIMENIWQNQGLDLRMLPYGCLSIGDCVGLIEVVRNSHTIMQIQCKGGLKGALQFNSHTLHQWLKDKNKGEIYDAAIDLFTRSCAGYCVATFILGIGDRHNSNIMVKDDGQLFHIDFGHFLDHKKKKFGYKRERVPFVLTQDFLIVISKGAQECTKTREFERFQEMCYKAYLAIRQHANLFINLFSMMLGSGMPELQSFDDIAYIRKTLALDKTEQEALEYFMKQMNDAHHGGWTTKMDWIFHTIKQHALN
# assay.procedure: PI3 kinase assay (Kinase-Glo luminescence), PI3K alfa
# Assay type: biochemical
# test.parameters: Enzymatic Data; read-out: PI3K alfa IC50 [umol]
pIC50: −log10 of the molar value.
Quick rule: pIC50 of at least 7 means 1, below that means 0.

Kindly determine if pIC50 recorded for CC(C)C(=O)NCC1(COc2ccc(-c3ccc4ncc(-c5cnc(N)c(C(F)(F)F)c5)n4n3)cc2)COC1 is above or exactly 7.
1

Decide: pIC50 of Nc1ncc(-c2cnc3ccc(-c4ccc(OCCCN5CCCC5=O)c(F)c4)nn23)cc1C(F)(F)F >= 7?
0

Does COc1ccc(-c2ccc3ncc(-c4cncc(C(F)(F)F)c4)n3n2)cc1OC have a reported pIC50 of at least 7?
0

Tell me whether pIC50 is at least 7 here: Nc1ncc(-c2ccc3ncc(-c4ccc(OCCCNC(=O)C5CC5)cc4)n3n2)cc1C(F)(F)F
1

Could you tell me if the measured pIC50 of COc1cc(-c2ccc3ncc(-c4cnc(N)c(C(F)(F)F)c4)n3n2)ccc1OCCNC(C)=O reaches 7 or more?
1
